test system: OVCAR-4 ovarian; assay: NCI tumour cell line growth inhibition, 48 h
*1 amine or outer side, *2 acyl side, *3 side chain or, on linkers, in order; H or OH if unused. Where a SMILES comes first, the peptide text is derived from it. Bridges are numbered along the chain shown (N, C = ends). [ ]: non-standard residue; d: D form. The star is where a group is joined. Phe(3-Me) = Cc1cccc(C[C@H](N)C(=O)O)c1; NH(4-Cl-2-F-phenyl) = Fc1cc(Cl)ccc1N*; Pro(4R-Me) = C[C@H]1CN[C@H](C(=O)O)C1; Hyp = O=C(O)[C@@H]1C[C@@H](O)CN1; aThr = C[C@H](O)[C@H](N)C(=O)O; Pip = O=C(O)[C@@H]1CCCCN1; CO = O=C([*:1])[*:2]
ENDPOINT: TGI (nM)
I only need the number, in nM, no unit after it.

Task: Quick one: give measured TGI for COc1cccc2c1C(=O)c1ccc3cc(CO)cc(O)c3c1C2=O
Result: 2030

Task: Quick one: give measured TGI for Cc1cccc(C[C@H](NC(=O)Nc2ccc(Cl)cc2F)C(=O)N[C@@H]2C(=O)N3C[C@H](O)C[C@H]3C(=O)N3CCCC[C@H]3C(=O)N[C@@H](C)C(=O)N3C[C@H](C)C[C@H]3C(=O)O[C@H]2C)c1 ({NH(4-Cl-2-F-phenyl)-CO}-[Phe(3-Me)][aThr][Hyp][Pip]A[Pro(4R-Me)]; ester 2-C)
Result: 2680
